System: OVCAR-4 ovarian
methodNotes: NCI tumour cell line growth inhibition, 48 h
What TGI was measured for each of the following?

These solved cases illustrate the format of a correct answer.
molecule	recordedValue
C(=Nc1ccc(-c2nc3ccccc3s2)cc1)c1ccco1	> 100 µM
CC1=CCCC(OC(N)=O)C1 (stereo unspecified)	> 100 µM
CC(=O)/C=C/c1cccc(N=S)c1	> 100 µM
Cc1c(N2C(=O)/C(=C\c3ccccc3O)N=C2c2ccccc2)c(=O)n(-c2ccccc2)n1C	> 100 µM

State the recorded TGI for every item in the following list.
1. COc1ccc(-n2cc(-c3ccc(OC)c(OC)c3)[nH]c2=S)cc1Cl
2. NNC(=O)c1cnn(-c2ccnc3c(C(F)(F)F)cccc23)c1N
3. Fc1ccc(-c2nn(-c3ccccc3)cc2-c2nc3ccccc3o2)cc1
4. Cc1cc(O)cc(O)c1N=Nc1ccc([N+](=O)[O-])cc1
5. O=C1OC[C@@H]2Cc3c([nH]c4ccccc34)[C@@H](c3ccc(O)cc3)N12
6. CC(C)(CO)N1C(=O)c2ccccc2C1(O)c1ccc(Cl)cc1 (stereo unspecified)

Solution:
["> 100 µM", "> 100 µM", "> 100 µM", "57 µM", "> 86.4 µM", "> 100 µM"]
